Data provenance is ChEMBL document CHEMBL3393017.

assay: Antimelanogenic activity in mouse B16F10 cells assessed as inhibition of melanin production after 4 days; format: functional, cell-based; details: B16-F10, 96 h
pIC50: −log10 of the molar value.
measurement kind: pIC50

Study these solved cases before continuing.
query smiles: COc1cc(O)c(C(=O)/C=C/c2c(C)cccc2C)c(OC)c1
pIC50: 5.00
--
query smiles: COc1cc(O)c(C(=O)/C=C/c2ccccc2)c(OC)c1
pIC50: 5.11
--
query smiles: COc1cc(O)c(C(=O)/C=C/c2ccccc2OC)c(OC)c1
pIC50: 5.42

[P] COc1cc(O)c(C(=O)/C=C/c2ccc(O)cc2)c(OC)c1
[Q] COc1cc(O)c(C(=O)/C=C/c2ccc(O)c(O)c2)c(OC)c1
[R] COc1cc(O)c(C(=O)/C=C/c2ccccc2C(C)C)c(OC)c1
Prompt line: Sort by pIC50, descending. Provide the labels, sequenced as the question asks.
Response line: R, P, Q

====

molecular target: Tyrosinase (Agaricus bisporus); test: Inhibition of mushroom tyrosinase using L-tyrosine as substrate after 20 mins by microplate reader
Sequence (O42713 whole entry): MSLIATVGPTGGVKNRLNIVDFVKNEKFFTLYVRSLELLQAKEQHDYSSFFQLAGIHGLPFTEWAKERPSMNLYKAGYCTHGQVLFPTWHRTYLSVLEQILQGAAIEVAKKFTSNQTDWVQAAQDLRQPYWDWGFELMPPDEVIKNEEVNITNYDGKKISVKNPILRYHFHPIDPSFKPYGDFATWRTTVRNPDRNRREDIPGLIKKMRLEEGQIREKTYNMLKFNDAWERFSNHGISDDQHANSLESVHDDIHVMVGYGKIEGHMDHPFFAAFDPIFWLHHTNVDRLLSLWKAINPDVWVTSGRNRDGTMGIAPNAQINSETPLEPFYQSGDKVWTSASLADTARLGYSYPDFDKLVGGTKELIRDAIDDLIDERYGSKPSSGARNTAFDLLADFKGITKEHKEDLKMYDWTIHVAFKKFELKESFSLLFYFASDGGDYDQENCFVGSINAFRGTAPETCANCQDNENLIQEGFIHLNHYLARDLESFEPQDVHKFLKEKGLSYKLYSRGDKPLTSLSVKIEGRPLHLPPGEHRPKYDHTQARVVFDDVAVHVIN
measurement kind: IC50

A selection of reference data follows.
query smiles: COc1cc(O)c(C(=O)/C=C/c2ccccc2OC)c(OC)c1
IC50: Not Active
//
query smiles: COc1cc(O)c(C(=O)/C=C/c2ccccc2C)c(OC)c1
IC50: Not Active
//
query smiles: COc1ccc(/C=C/C(=O)c2c(O)cc(OC)cc2OC)cc1
IC50: Not Active
//
query smiles: COc1cc(O)c(C(=O)/C=C/c2c(C)cccc2C)c(OC)c1
IC50: Not Active

Prompt line: # input molecule: `COc1cc(O)c(C(=O)/C=C/c2ccc(O)cc2)c(OC)c1` ; wanted: its IC50
Response line: Not Active

Prompt line: Look up IC50: `COc1cc(O)c(C(=O)/C=C/c2ccccc2C(C)C)c(OC)c1`
Response line: Not Active

Prompt line: Can you look up the measured IC50 of `COc1cc(O)c(C(=O)/C=C/c2ccc(O)c(O)c2)c(OC)c1` for me?
Response line: Not Active

Prompt line: For `COc1cccc(/C=C/C(=O)c2c(O)cc(OC)cc2OC)c1` , what is its reported IC50?
Response line: Not Active

Prompt line: Which IC50 is reported for this molecule? `COc1ccc(/C=C/C(=O)c2c(O)cc(OC)cc2OC)c(OC)c1`
Response line: Not Active

Prompt line: Sample `CCc1ccccc1/C=C/C(=O)c1c(O)cc(OC)cc1OC` — what was its IC50?
Response line: Not Active

Prompt line: # lookup: IC50 of `COc1cc(O)c(C(=O)/C=C/c2cccc(O)c2)c(OC)c1`
Response line: Not Active

Prompt line: Please look up its IC50: `COc1cc(O)c(C(=O)/C=C/c2ccc(O)cc2O)c(OC)c1`
Response line: Not Active

Prompt line: Request the reported IC50 associated with `COc1cc(O)c(C(=O)/C=C/c2ccccc2O)c(OC)c1`
Response line: Not Active

Prompt line: Please look up its IC50: `COc1cc(O)c(C(=O)/C=C/c2ccccc2)c(OC)c1`
Response line: Not Active

====

experiment: Antimelanogenic activity in mouse B16F10 cells assessed as inhibition of melanin production after 4 days; assay type: functional, cell-based; settings: B16-F10, 96 h
measurement kind: IC50 (µM)

query smiles: COc1cc(O)c(C(=O)/C=C/c2ccccc2O)c(OC)c1
IC50 / µM: 2.3
//
query smiles: COc1cc(O)c(C(=O)/C=C/c2ccccc2C)c(OC)c1
IC50 / µM: 3
//
query smiles: COc1cc(O)c(C(=O)/C=C/c2ccc(O)cc2O)c(OC)c1
IC50 / µM: 3.4
//
query smiles: CCc1ccccc1/C=C/C(=O)c1c(O)cc(OC)cc1OC
IC50 / µM: 2.5

[a] COc1cccc(/C=C/C(=O)c2c(O)cc(OC)cc2OC)c1
[b] COc1cc(O)c(C(=O)/C=C/c2cccc(O)c2)c(OC)c1
Prompt line: IC50 comparison. Which is larger, a or b ? Kindly state the label of the option you pick.
Response line: b
(b: 9.9 µM, a: 3.1 µM)
